system.name: UniProt Q9GZQ8
result.type: Kd (µM)
Provide only the numeric value, understood in µM.

Lab note: need Kd for CO[C@@H]1[C@@H](OC(N)=O)[C@@H](O)[C@H](Oc2ccc3c(O)c(NC(=O)c4ccc(O)c(CCC(C)C)c4)c(=O)oc3c2C)OC1(C)C on UniProt Q9GZQ8, anyone have it? 11.4

---

system.name: Microtubule-associated protein 1 light chain 3 beta (Homo sapiens, UniProt Q9GZQ8)
experiment: Displacement of sGFP-p62-LIR peptide from human N-terminal SNAP-fused LC3B by time-resolved FRET assay
measurement.parameters: read-out: IC50
result.type: IC50 (µM)

1. CO[C@@H]1[C@@H](OC(N)=O)[C@@H](O)[C@H](Oc2ccc3c(O)c(NC(=O)c4ccc(O)c(CCC(C)C)c4)c(=O)oc3c2C)OC1(C)C 72.3

(1) CC(C)CCc1cccc(C(=O)Nc2c(O)c3ccc(NS(=O)(=O)CCc4ccccc4)cc3oc2=O)c1
(2) CCCC[C@H](NC(=O)OC(C)(C)C)C(=O)Nc1c(O)c2ccc(O)cc2oc1=O
# returns the entry with the larger IC50; inputs 1 and 2 Respond with the label that goes with your answer. 2

---

system.name: Microtubule-associated protein 1 light chain 3 alpha (Homo sapiens, UniProt Q9H492)
experiment: Displacement of sGFP-p62-LIR peptide from human N-terminal SNAP-fused LC3A by time-resolved FRET assay
measurement.parameters: read-out: Ki
result.type: Ki (µM)

Here are 2 compounds together with their reported answers.
1) CO[C@@H]1[C@@H](OC(N)=O)[C@@H](O)[C@H](Oc2ccc3c(O)c(NC(=O)c4ccc(O)c(CCC(C)C)c4)c(=O)oc3c2C)OC1(C)C 3.3
2) CC(C)CCc1ccccc1C(=O)Nc1c(O)c2ccc(O)cc2oc1=O 44

(P) CC(C)CCc1cc(C(=O)Nc2c(O)c3ccc(O)cc3oc2=O)ccc1O
(Q) CC(C)S(=O)(=O)Nc1cccc(C(=O)Nc2c(O)c3ccc(O)cc3oc2=O)c1
(R) CCOc1cccc(C(=O)Nc2c(O)c3ccc(O)cc3oc2=O)c1
(S) O=C(Nc1c(O)c2ccc(O)cc2oc1=O)c1cccc(CCc2ccccc2)c1
Rank the items in ascending order with respect to Ki. Answer with the labels in sequence, matching the requested order. P, Q, S, R
(P: 26.2 µM, Q: 39 µM, S: 75 µM, R: 129 µM)

---

system.name: Microtubule-associated protein 1 light chain 3 alpha (Homo sapiens)
experiment: Displacement of sGFP-p62-LIR peptide from human N-terminal SNAP-fused LC3A by time-resolved FRET assay
result.type: IC50

Here are 4 molecules together with their reported answers.
1. CC(C)CCc1cccc(C(=O)Nc2c(O)c3ccc(-c4coc5ccccc45)cc3oc2=O)c1 Not Active
2. CC(C)C[C@@H](NC(=O)OC(C)(C)C)C(=O)Nc1c(O)c2ccc(O)cc2oc1=O Not Active
3. CC(C)(C)OC(=O)NCC(=O)Nc1c(O)c2ccc(O)cc2oc1=O Not Active
4. CC[C@H](C)[C@H](NC(=O)OC(C)(C)C)C(=O)Nc1c(O)c2ccc(O)cc2oc1=O Not Active

Which IC50 value is on record for CC(C)[C@H](NC(=O)OC(C)(C)C)C(=O)Nc1c(O)c2ccc(O)cc2oc1=O ? Not Active

---

system.name: Microtubule-associated protein 1 light chain 3 alpha (Homo sapiens, UniProt Q9H492)
experiment: Displacement of sGFP-p62-LIR peptide from human N-terminal SNAP-fused LC3A by time-resolved FRET assay
measurement.parameters: read-out: IC50
pIC50: −log10 of the molar value.
result.type: pIC50

Here are 4 molecules together with their reported answers.
1) CC(C)CCc1cccc(C(=O)Nc2c(O)c3ccc(O)cc3oc2=O)c1 4.19
2) CC(C)CCc1cccc(C(=O)Nc2c(O)c3ccc(-c4ccccc4-c4ccccc4)cc3oc2=O)c1 3.29
3) CC(C)CCc1cccc(C(=O)Nc2c(O)c3ccc(NS(=O)(=O)CCc4ccccc4)cc3oc2=O)c1 4.44
4) Cc1ccc(S(=O)(=O)Nc2ccc3c(O)c(NC(=O)c4cccc(CCC(C)C)c4)c(=O)oc3c2)cc1 4.22

(P) CCCC[C@H](NC(=O)OC(C)(C)C)C(=O)Nc1c(O)c2ccc(O)cc2oc1=O
(Q) Cc1c(O)ccc2c(O)c(NC(=O)c3ccc(O)c(CCC(C)C)c3)c(=O)oc12
// which entry reports the smaller pIC50, P or Q ? Respond with the label that goes with your answer. P

(P) CC(C)CCc1cccc(C(=O)Nc2c(O)c3ccc(NC(=O)CCC(=O)O)cc3oc2=O)c1
(Q) CC(C)CCc1cccc(C(=O)Nc2c(O)c3ccc(-c4cccc(C(=O)O)c4)cc3oc2=O)c1
(R) COc1ccc(C(=O)Nc2c(O)c3ccc(O)cc3oc2=O)cc1CCC(C)C
Rank the items in ascending order with respect to pIC50. Answer with the labels in sequence, matching the requested order. P, R, Q
(P: 3.66, R: 4.19, Q: 4.45)
